assayedSystem: Full length Human HDAC6 (Homo sapiens, UniProt Q9UBN7)
Sequence (Q9UBN7 1-1215): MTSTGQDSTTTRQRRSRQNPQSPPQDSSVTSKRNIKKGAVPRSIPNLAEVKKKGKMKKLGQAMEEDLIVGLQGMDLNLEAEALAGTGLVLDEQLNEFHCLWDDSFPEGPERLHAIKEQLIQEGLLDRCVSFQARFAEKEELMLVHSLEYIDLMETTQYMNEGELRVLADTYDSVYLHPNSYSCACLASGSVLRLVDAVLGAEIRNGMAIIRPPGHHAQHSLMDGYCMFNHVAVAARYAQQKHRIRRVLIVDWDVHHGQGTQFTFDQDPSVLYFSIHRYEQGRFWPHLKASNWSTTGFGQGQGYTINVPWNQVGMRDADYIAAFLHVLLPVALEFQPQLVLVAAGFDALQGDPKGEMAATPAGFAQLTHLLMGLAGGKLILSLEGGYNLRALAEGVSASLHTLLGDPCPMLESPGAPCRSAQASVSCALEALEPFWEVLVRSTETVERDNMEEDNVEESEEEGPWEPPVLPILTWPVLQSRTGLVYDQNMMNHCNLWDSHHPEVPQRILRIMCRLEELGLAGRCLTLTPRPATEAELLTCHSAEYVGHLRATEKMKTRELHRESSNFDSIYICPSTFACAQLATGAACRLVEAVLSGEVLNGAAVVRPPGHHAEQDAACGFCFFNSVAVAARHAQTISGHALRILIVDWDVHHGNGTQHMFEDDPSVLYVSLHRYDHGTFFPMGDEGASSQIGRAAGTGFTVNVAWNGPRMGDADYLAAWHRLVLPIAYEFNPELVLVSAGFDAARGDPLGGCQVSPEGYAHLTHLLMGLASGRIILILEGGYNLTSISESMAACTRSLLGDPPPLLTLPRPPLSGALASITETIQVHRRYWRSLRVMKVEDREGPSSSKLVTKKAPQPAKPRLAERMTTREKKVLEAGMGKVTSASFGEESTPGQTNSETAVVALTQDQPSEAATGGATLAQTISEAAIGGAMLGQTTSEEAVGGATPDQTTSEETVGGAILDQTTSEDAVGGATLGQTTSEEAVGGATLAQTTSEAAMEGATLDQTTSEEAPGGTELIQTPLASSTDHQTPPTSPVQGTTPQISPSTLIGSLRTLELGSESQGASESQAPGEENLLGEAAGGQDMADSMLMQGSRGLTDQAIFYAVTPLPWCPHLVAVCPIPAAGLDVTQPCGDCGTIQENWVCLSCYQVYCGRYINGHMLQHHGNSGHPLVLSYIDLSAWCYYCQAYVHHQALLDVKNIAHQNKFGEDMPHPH
Please go through the items and note down their IC50.

>>> df
                                   molecule       measvalue
0       O=C(NO)c1cc(F)c2c(c1)CN1CCC[C@H]1C2  100 to 1000 nM
1  CC(=O)N1CC2(CCC(N3CCc4cc(C(=O)NO)cc(F)c4C3)C2)C1 (centres unmarked)     1 to 100 nM
2  O=C(NO)c1cc(F)c2c(c1)CCN([C@H]1CCC3(CCCCC3)C1)C2 (single isomer, unassigned)     1 to 100 nM

I would be grateful if you could provide IC50 for each of the following entries.
1. CC[C@@H]1Cc2c(F)cc(C(=O)NO)cc2CN1C[C@H]1C[C@H]2CC[C@@H](C1)N2C (single isomer, unassigned)
2. CC[C@H]1Cc2c(F)cc(C(=O)NO)cc2CN1CC1CC2CCC(C1)N2C (single isomer, unassigned)
3. CN1CC[C@H](N2CCc3cc(C(=O)NO)cc(F)c3C2)CC12CCC2 (single isomer, unassigned)
4. CC[C@@H](c1ccc(C(=O)NO)cc1F)N1CCC2(CCCCC2)C1 (single isomer, unassigned)
5. CN1CC2(CC(N3CCc4cc(C(=O)NO)cc(F)c4C3)C2)C1
6. CC[C@H]1Cc2c(F)cc(C(=O)NO)cc2CN1CC1COC1 (single isomer, unassigned)
7. O=C(NO)c1ccc2c(c1)CN1CCC[C@H]21
8. O=C(NO)c1cc(F)c2c(c1)CCN([C@H]1C[C@@]3(CCCN(C4CC4)C3)C1)C2 (single isomer, unassigned)

1 to 100 nM
1 to 100 nM
1 to 100 nM
100 to 1000 nM
1 to 100 nM
1 to 100 nM
1000 to 10000 nM
1 to 100 nM

Need IC50 for each of these molecules.
1. CN1CC[C@@]2(CC[C@H]2N2CCc3cc(C(=O)NO)cc(F)c3C2)C1 (single isomer, unassigned)
2. O=C(NO)c1cc(F)c(CN2C3CCC2CC(=NO)C3)cc1F
3. O=C(NO)c1cc(F)c2c(c1)CCN([C@H]1CC[C@]13CCOC3)C2 (single isomer, unassigned)

1 to 100 nM
1 to 100 nM
1 to 100 nM
